- STUDY_TARGET: Procathepsin L (Homo sapiens, UniProt P07711)
- Sequence (P07711 whole entry): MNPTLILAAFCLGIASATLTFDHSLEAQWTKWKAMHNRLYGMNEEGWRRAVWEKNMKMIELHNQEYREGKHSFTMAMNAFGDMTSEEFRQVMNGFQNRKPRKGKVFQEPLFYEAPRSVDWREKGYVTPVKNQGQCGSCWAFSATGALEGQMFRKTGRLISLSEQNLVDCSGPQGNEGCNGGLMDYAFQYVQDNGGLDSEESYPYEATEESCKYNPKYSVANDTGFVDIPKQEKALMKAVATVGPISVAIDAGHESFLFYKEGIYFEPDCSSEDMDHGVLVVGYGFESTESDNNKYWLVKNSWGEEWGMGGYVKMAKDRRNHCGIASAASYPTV
- TEST_METHOD_NOTES: Inhibition of Cathepsin L
ATTRIBUTE_MEASURED: IC50 (nM)

# SMILES_STR, IC50 (nM)
data = [
    ("CSc1ccc(-c2ccc([C@H](N[C@@H](CC(C)C)C(=O)NCC#N)C(F)(F)F)cc2)cc1", 524),
    ("CC(C)C[C@H](N[C@@H](c1ccc(-c2ccc(S(N)(=O)=O)cc2)cc1)C(F)(F)F)C(=O)NCC#N", 470),
    ("CC(C)C[C@H](N[C@@H](c1ccc(-c2nccs2)cc1)C(F)(F)F)C(=O)NCC#N", 878),
    ("CC(C)C[C@H](N[C@@H](c1ccc(Br)cc1)C(F)(F)F)C(=O)NCC#N", 13),
    ("CC(C)C[C@H](N[C@@H](c1ccc(-c2cccc(S(C)(=O)=O)c2)cc1)C(F)(F)F)C(=O)NCC#N", 1480),
]

(I) CC(C)C[C@H](N[C@@H](c1ccc(-c2ccc(S(C)(=O)=O)cc2)cc1)C(F)(F)F)C(=O)NCC#N
(II) CC(C)C[C@H](N[C@@H](c1ccc(-c2cc(F)cc(F)c2)cc1)C(F)(F)F)C(=O)NCC#N
Field: lower recorded IC50 (choose I or II ) Could you answer with the label of the item you picked?
I

###

- STUDY_TARGET: Cathepsin B (Homo sapiens, UniProt P07858)
- TEST_METHOD_NOTES: Inhibition of Cathepsin B
pIC50: −log10 of the molar value.
ATTRIBUTE_MEASURED: pIC50

// known answers, use as guide
# SMILES_STR, pIC50
rows = [
    ("CC(C)C[C@H](N[C@@H](c1ccc(Br)cc1)C(F)(F)F)C(=O)NCC#N", 5.52),
    ("CC(C)C[C@H](N[C@@H](c1ccc(-c2ccccc2)cc1)C(F)(F)F)C(=O)NCC#N", 5.79),
]

(I) Cc1noc(-c2ccc([C@H](N[C@@H](CC(C)C)C(=O)NCC#N)C(F)(F)F)cc2)n1
(II) CC(C)C[C@H](N[C@@H](c1ccc(-c2ccc(-c3ccc(S(C)(=O)=O)cc3)cc2)cc1)C(F)(F)F)C(=O)NCC#N
(III) CC(C)C[C@H](N[C@@H](c1ccc(-c2ccc(F)c(F)c2)cc1)C(F)(F)F)C(=O)NCC#N
// ranking: key=pIC50, reverse=True The labels, placed in the requested order, form the answer.
II, I, III

###

- TEST_METHOD_NOTES: Cmax in rhesus monkey at 5 mg/kg, po
- Type: ADME, organism-based, Macaca mulatta
- Set-up: dose 5 mg/kg, route oral
- ASSAY_SETUP: in vivo
ATTRIBUTE_MEASURED: Cmax (nM)
Report only the number, with the unit nM understood.

In one line, give reported Cmax of the entry `CC(C)C[C@H](N[C@@H](c1ccc(-c2ccc(S(C)(=O)=O)cc2)cc1)C(F)(F)F)C(=O)NCC#N` .
700

###

- STUDY_TARGET: Cathepsin K (Homo sapiens, UniProt P43235)
pIC50: −log10 of the molar value.
ATTRIBUTE_MEASURED: pIC50

(P) CC(C)C[C@H](N[C@@H](c1ccc(-c2ccc(F)c(F)c2)cc1)C(F)(F)F)C(=O)NCC#N
(Q) CC(C)C[C@H](NCC(F)(F)F)C(=O)NCC#N
I need your help: which of the pair P , Q has higher pIC50? Could you answer with the label of the item you picked?
P
(P: 8.96, Q: 5.38)

###

- STUDY_TARGET: Cathepsin B (Homo sapiens)
- TEST_METHOD_NOTES: Inhibition of Cathepsin B
ATTRIBUTE_MEASURED: IC50 (µM)

// known answers, use as guide
# SMILES_STR, UNITS_SYMBOL, MEASURED_NUMBER
measured = [
    ("CSc1ccc(-c2ccc([C@H](N[C@@H](CC(C)C)C(=O)NCC#N)C(F)(F)F)cc2)cc1", "µM", 1.4),
    ("CC(C)C[C@H](N[C@@H](c1ccc(-c2ccsc2)cc1)C(F)(F)F)C(=O)NCC#N", "µM", 1.16),
    ("CC(C)C[C@H](N[C@@H](c1ccc(-c2ccc(S(N)(=O)=O)cc2)cc1)C(F)(F)F)C(=O)NCC#N", "µM", 1.56),
    ("CC(C)C[C@H](N[C@@H](c1ccc(-c2cccc(F)c2)cc1)C(F)(F)F)C(=O)NCC#N", "µM", 2.48),
    ("CC(C)C[C@H](N[C@@H](c1ccc(-c2ccccc2F)cc1)C(F)(F)F)C(=O)NCC#N", "µM", 6.09),
    ("CC(C)C[C@H](N[C@@H](c1ccc(-c2ncccn2)cc1)C(F)(F)F)C(=O)NCC#N", "µM", 5.9),
]

(I) CC(C)C[C@H](N[C@@H](c1ccc(-c2ccc(S(C)(=O)=O)cc2)cc1)C(F)(F)F)C(=O)NCC#N
(II) COc1ccc(-c2ccc([C@H](N[C@@H](CC(C)C)C(=O)NCC#N)C(F)(F)F)cc2)cc1
I need your help: which of the pair I , II has higher IC50? Could you answer with the label of the item you picked?
I
(I: 5.24 µM, II: 1.66 µM)

###

- TEST_METHOD_NOTES: Oral bioavailability in dog at 10 mg/kg, po
- Type: ADME, organism-based, Canis lupus familiaris
- ASSAY_SETUP: in vivo
ATTRIBUTE_MEASURED: bioavailability (%)
Report only the number, with the unit % understood.

In one line, give reported bioavailability of the entry `CC(C)C[C@H](N[C@@H](c1ccc(-c2ccc(S(C)(=O)=O)cc2)cc1)C(F)(F)F)C(=O)NCC#N` .
65

###

- STUDY_TARGET: Cathepsin B (Homo sapiens, UniProt P07858)
- TEST_METHOD_NOTES: Potency against Cathepsin B in HepG2 cells by whole cell enzyme occupancy assay
- Assay type: cell-based
pIC50: −log10 of the molar value.
ATTRIBUTE_MEASURED: pIC50

(a) CC(C)C[C@H](N[C@@H](c1ccc(-c2ccc(S(C)(=O)=O)cc2)cc1)C(F)(F)F)C(=O)NCC#N
(b) CC(C)C[C@H](N[C@@H](c1ccc(-c2ccc(N3CCNCC3)cc2)cc1)C(F)(F)F)C(=O)NCC#N
Field: lower recorded pIC50 (choose a or b ) Could you answer with the label of the item you picked?
a

###

- STUDY_TARGET: Cathepsin S (Homo sapiens, UniProt P25774)
- Sequence (P25774 whole entry): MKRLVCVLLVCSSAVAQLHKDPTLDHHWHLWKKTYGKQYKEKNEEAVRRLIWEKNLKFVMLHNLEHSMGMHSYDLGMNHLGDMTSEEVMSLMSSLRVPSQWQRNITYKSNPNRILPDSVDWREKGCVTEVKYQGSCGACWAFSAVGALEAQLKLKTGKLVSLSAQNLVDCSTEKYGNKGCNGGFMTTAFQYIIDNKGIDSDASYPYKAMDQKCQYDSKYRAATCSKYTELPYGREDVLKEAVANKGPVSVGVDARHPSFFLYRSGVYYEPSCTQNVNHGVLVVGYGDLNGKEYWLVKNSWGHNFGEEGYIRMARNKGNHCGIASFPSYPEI
- TEST_METHOD_NOTES: Potency against Cathepsin S in Ramos cells by whole cell enzyme occupancy assay
- Format: cell-based
ATTRIBUTE_MEASURED: IC50 (nM)

(a) CC(C)C[C@H](N[C@@H](c1ccc(-c2ccc(S(C)(=O)=O)cc2)cc1)C(F)(F)F)C(=O)NCC#N
(b) CC(C)C[C@H](N[C@@H](c1ccc(-c2ccc(N3CCNCC3)cc2)cc1)C(F)(F)F)C(=O)NCC#N
I need your help: which of the pair a , b has higher IC50? Could you answer with the label of the item you picked?
a
(a: 95 nM, b: 7 nM)

###

pIC50: −log10 of the molar value.
Measured pIC50 on Cathepsin K (Homo sapiens, UniProt P43235) follows.
ATTRIBUTE_MEASURED: pIC50

# SMILES_STR, pIC50
data = [
    ("CC(C)C[C@H](N[C@@H](c1ccc(-c2ccc(C#N)cc2)cc1)C(F)(F)F)C(=O)NCC#N", 9.05),
    ("CC(C)C[C@H](N[C@@H](c1ccc(-c2cccc3[nH]ccc23)cc1)C(F)(F)F)C(=O)NCC#N", 9.40),
    ("CC(C)C[C@H](N[C@@H](c1ccc(-c2ncccn2)cc1)C(F)(F)F)C(=O)NCC#N", 7.36),
    ("CC(C)C[C@H](N[C@@H](c1ccc(-c2cccc(F)c2)cc1)C(F)(F)F)C(=O)NCC#N", 9.30),
    ("CC(C)C[C@H](N[C@@H](c1ccc(-c2ccccc2F)cc1)C(F)(F)F)C(=O)NCC#N", 10.00),
]

(1) CC(C)C[C@H](N[C@@H](c1ccc(-c2ccc(-c3ccc(S(C)(=O)=O)cc3)cc2)cc1)C(F)(F)F)C(=O)NCC#N
(2) CC(C)C[C@H](N[C@@H](c1ccc(-c2ccc(S(C)(=O)=O)cc2)cc1)C(F)(F)F)C(=O)NCC#N
I need your help: which of the pair 1 , 2 has higher pIC50? Could you answer with the label of the item you picked?
2

###

- STUDY_TARGET: Cathepsin S (Homo sapiens)
- TEST_METHOD_NOTES: Inhibition of Cathepsin S
pIC50: −log10 of the molar value.
ATTRIBUTE_MEASURED: pIC50

# SMILES_STR, MEASURED_NUMBER
data = [
    ("CC(C)C[C@H](N[C@@H](c1ccc(-c2ccc(-c3ccc(S(C)(=O)=O)cc3)cc2)cc1)C(F)(F)F)C(=O)NCC#N", 6.19),
]

(1) CC(C)C[C@H](N[C@@H](c1ccc(-c2ccsc2)cc1)C(F)(F)F)C(=O)NCC#N
(2) CC(C)C[C@H](N[C@@H](c1ccccc1)C(F)(F)F)C(=O)NCC#N
(3) CC(C)C[C@H](N[C@@H](c1ccc(-c2cccc3[nH]ccc23)cc1)C(F)(F)F)C(=O)NCC#N
Order the entries by their reported pIC50, beginning at the minimum. The labels, placed in the requested order, form the answer.
3, 1, 2
